# assayedSystem: human serum albumin (HSA) (Homo sapiens)
# testSummary: Fluorescence emission spectrum (quenching) of HSA with carbamate pesticides
# Format: binding
# conditionSummary: Van't Hoff, 296-310 K
Values of ΔS^0 strictly less than 300 J · mol^−1 · K^−1 map to MET, and values of at least 300 J · mol^−1 · K^−1 map to NOT MET.

[
  {
    "compound": "CNC(=O)O/N=C(\\CS(C)(=O)=O)C(C)(C)C",
    "assayedSystem": "human serum albumin (HSA) (Homo sapiens)",
    "class": "NOT MET"
  },
  {
    "compound": "CNC(=O)O/N=C(\\C[S+](C)[O-])C(C)(C)C (centres unmarked) [Thiofanox-sulfoxide]",
    "assayedSystem": "human serum albumin (HSA) (Homo sapiens)",
    "class": "MET"
  },
  {
    "compound": "CNC(=O)Oc1ccccc1C(C)C",
    "assayedSystem": "human serum albumin (HSA) (Homo sapiens)",
    "class": "MET"
  },
  {
    "compound": "CNC(=O)Oc1ccccc1OC(C)C",
    "assayedSystem": "human serum albumin (HSA) (Homo sapiens)",
    "class": "MET"
  },
  {
    "compound": "CNC(=O)ON=C(C)SC",
    "assayedSystem": "human serum albumin (HSA) (Homo sapiens)",
    "class": "NOT MET"
  },
  {
    "compound": "CNC(=O)ON=C(CSC)C(C)(C)C",
    "assayedSystem": "human serum albumin (HSA) (Homo sapiens)",
    "class": "MET"
  },
  {
    "compound": "CNC(=O)O/N=C(\\SC)C(=O)N(C)C",
    "assayedSystem": "human serum albumin (HSA) (Homo sapiens)",
    "class": "MET"
  },
  {
    "compound": "CNC(=O)Oc1cc(C)cc(C(C)C)c1",
    "assayedSystem": "human serum albumin (HSA) (Homo sapiens)",
    "class": "NOT MET"
  },
  {
    "compound": "CNC(=O)O/N=C(\\C)C(C)S(C)(=O)=O (centres unmarked)",
    "assayedSystem": "human serum albumin (HSA) (Homo sapiens)",
    "class": "NOT MET"
  },
  {
    "compound": "CNC(=O)Oc1cccc2c1OC(C)(C)C2",
    "assayedSystem": "human serum albumin (HSA) (Homo sapiens)",
    "class": "MET"
  },
  {
    "compound": "CCSCc1ccccc1OC(=O)NC",
    "assayedSystem": "human serum albumin (HSA) (Homo sapiens)",
    "class": "MET"
  },
  {
    "compound": "CNC(=O)Oc1cccc(C)c1",
    "assayedSystem": "human serum albumin (HSA) (Homo sapiens)",
    "class": "MET"
  },
  {
    "compound": "CNC(=O)Oc1ccc(N(C)C)c(C)c1",
    "assayedSystem": "human serum albumin (HSA) (Homo sapiens)",
    "class": "MET"
  },
  {
    "compound": "CNC(=O)Oc1cc(C)cc(C)c1 [XMC, 3,5-xylyl methylcarbamate]",
    "assayedSystem": "human serum albumin (HSA) (Homo sapiens)",
    "class": "NOT MET"
  }
]

====

Known Kq of a selection of compounds
# assayedSystem: human serum albumin (HSA) (Homo sapiens, UniProt P02768)
# Sequence (P02768 25-609): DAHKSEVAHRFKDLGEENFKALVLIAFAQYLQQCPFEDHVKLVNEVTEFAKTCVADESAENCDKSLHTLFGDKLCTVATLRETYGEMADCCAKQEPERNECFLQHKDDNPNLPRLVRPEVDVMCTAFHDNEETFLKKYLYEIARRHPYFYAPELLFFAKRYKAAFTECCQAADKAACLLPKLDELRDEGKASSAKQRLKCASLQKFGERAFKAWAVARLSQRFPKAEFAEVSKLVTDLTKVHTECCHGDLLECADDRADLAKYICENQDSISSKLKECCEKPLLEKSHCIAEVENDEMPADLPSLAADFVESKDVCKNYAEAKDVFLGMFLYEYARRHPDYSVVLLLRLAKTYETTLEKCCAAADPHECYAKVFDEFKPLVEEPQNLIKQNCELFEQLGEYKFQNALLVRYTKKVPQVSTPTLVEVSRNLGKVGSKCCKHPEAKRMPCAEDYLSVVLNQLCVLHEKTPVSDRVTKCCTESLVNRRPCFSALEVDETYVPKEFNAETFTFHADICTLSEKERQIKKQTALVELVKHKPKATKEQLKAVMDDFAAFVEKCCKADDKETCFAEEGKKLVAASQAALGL
# testSummary: Fluorescence emission spectrum (quenching) of HSA with carbamate pesticides
# Format: binding
# conditionSummary: 310 K, pH 7.4

[
  {
    "moleculeSmiles": "CNC(=O)O/N=C(\\CS(C)(=O)=O)C(C)(C)C",
    "assayedSystem": "human serum albumin (HSA) (Homo sapiens, UniProt P02768)",
    "Kq": "5.574 ± 0.138 10^12 M^−1s^−1"
  },
  {
    "moleculeSmiles": "CNC(=O)Oc1ccccc1C(C)C",
    "assayedSystem": "human serum albumin (HSA) (Homo sapiens, UniProt P02768)",
    "Kq": "3.015 ± 0.043 10^12 M^−1s^−1"
  },
  {
    "moleculeSmiles": "CNC(=O)ON=C(C)SC",
    "assayedSystem": "human serum albumin (HSA) (Homo sapiens, UniProt P02768)",
    "Kq": "5.288 ± 0.093 10^12 M^−1s^−1"
  },
  {
    "moleculeSmiles": "CNC(=O)Oc1ccccc1OC(C)C",
    "assayedSystem": "human serum albumin (HSA) (Homo sapiens, UniProt P02768)",
    "Kq": "5.053 ± 0.120 10^12 M^−1s^−1"
  }
]
